System: L1210 leukemia ip in BDF1 mice, survival T/C
experiment: NCI In Vivo Anticancer Drug Screen. Data for tumor model L1210 Leukemia (intraperitoneal) in B6D2F1 (BDF1) mice
run_conditions: endpoint: mean survival time; dose: 100.0 mg/kg/injection; schedule: Q04DX003 (ip); vehicle: saline; higher = longer survival
Inconclusive results and toxic doses are left out.
recorded_endpoint: T/C

I have 3 molecules here; please give me T/C for each one.
1. C=C1CCC2(C(C)C)CC12 (stereo not drawn)
2. CC(C)C(C(=O)O)c1ccccc1 (stereo not drawn)
3. C#CCC(C)OS(=O)(=O)c1ccc(C)cc1 (stereo not drawn)

Completion:
1: 96 % of control; 2: 100 % of control; 3: 93 % of control

Hi, could you look up T/C for each item in my list?
1. COC(=O)C(Br)CBr (stereo not drawn)
2. CNC(N)=S
3. COc1ccc(C(O)S(=O)(=O)O)cc1 (stereo not drawn)
4. COc1ccc(-c2c(O)c3cccc(-c4ccccc4)c3oc2=O)cc1
5. O=S(=O)(C1CC1c1ccccc1)N1CCCc2ccccc21 (stereo not drawn)

Completion:
["102 % of control", "99 % of control", "98 % of control", "95 % of control", "98 % of control"]

Please give T/C for each item listed below.
1. CCOC1OCN(C)CC1(C)C (stereo not drawn)
2. O=C1C(O)=C(Cl)C(=O)C(OC2=C(Cl)C(=O)C(OC3=C(Cl)C(=O)C(OC4=C(Cl)C(=O)C(Cl)=C(Cl)C4=O)=C(Cl)C3=O)=C(Cl)C2=O)=C1Cl
3. Cc1cc(=O)[nH]cn1
4. Oc1ccc(Cl)cc1Sc1cc(Cl)ccc1O
5. CN(C)CCSC(=O)N1c2ccccc2C(C)(C)c2ccccc21

Completion:
["101 % of control", "97 % of control", "100 % of control", "86 % of control", "96 % of control"]

----------
I'd be grateful if you could share measured T/C for these entries.
System: L1210 leukemia ip in BDF1 mice, survival T/C
experiment: NCI In Vivo Anticancer Drug Screen. Data for tumor model L1210 Leukemia (intraperitoneal) in B6D2F1 (BDF1) mice
run_conditions: endpoint: mean survival time; dose: 200.0 mg/kg/injection; schedule: Q04DX003 (ip); vehicle: Klucel (hydroxypropylcellulose) (HPC); higher = longer survival
Inconclusive results and toxic doses are left out.

Some solved entries appear below for comparison.
compound: CCOC(=O)/C=C\c1c(OC)nc2ccccn2c1=O (tested in a mixture with another compound)
T/C: 92 % of control
//
compound: C#CCC1(OC(N)=O)CCCCC1
T/C: 107 % of control
//
compound: O=C(O)c1c(Cl)c(Cl)c(Cl)c(Cl)c1C(=O)Nc1cccc(C(F)(F)F)c1
T/C: 100 % of control
//
compound: CC(C)(C)C(=O)CC(=O)C(C)(C)C.CC(C)(C)C(=O)CC(=O)C(C)(C)C.CC(C)(C)C(=O)CC(=O)C(C)(C)C.CC(C)(C)C(=O)CC(=O)C(C)(C)C.[Ce]
T/C: 94 % of control

Respectfully, I request T/C for each entry included below.
1. N#CC(N)=NC1CCC(C2CCC(N)CC2)CC1 (centres undefined)
2. CC(C)(C)OC(=O)NNC(=O)C(CSC(c1ccccc1)c1ccccc1)N1C(=O)c2ccccc2C1=O (centres undefined)
3. CCCCCCCCCCCCCCNCCCCCCCCCCCCCC
4. CC(C)NCC(O)c1ccc(O)c(O)c1 (centres undefined)

Completion:
1. 94 % of control
2. 94 % of control
3. 95 % of control
4. 100 % of control

# batch size: 8; output T/C per entry
1. OC1(C#[C][Hg][C]#CC2(O)CCCCC2)CCCCC1
2. O=[N+]([O-])c1ccc(C=Nc2ccccc2S)s1
3. O=C(NCCCl)NC1CCCCCCCCCCC1
4. Nc1ccc(NS(=O)(=O)c2ccccc2)nc1
5. O=C1NC(c2ccc3ccccc3c2)Nc2ccccc21 (centres undefined)
6. CN(C)C(=O)Sc1c(Cl)cc(S(=O)(=O)F)cc1[N+](=O)[O-]
7. CCOC(=O)Nc1ccc(OC)cc1
8. Cc1ccc(-c2ccc(C)cc2)cc1

Completion:
1: 100 % of control; 2: 96 % of control; 3: 102 % of control; 4: 100 % of control; 5: 107 % of control; 6: 101 % of control; 7: 97 % of control; 8: 95 % of control

Would you mind giving T/C for every compound in the list below?
1. CCn1cc(C(=O)O)c(=O)c2ccc(-c3ccncc3)cc21
2. O=C(NC/C(Br)=C/Br)C(F)(F)F
3. ClC1=C(Cl)C2(Cl)C(C1Cl)C1(Cl)C(Cl)=C(Cl)C2(Cl)C1Cl (centres undefined)
4. CN(C)c1ccc(CNc2ccc(Cl)cc2)cc1
5. COC(=O)C1CCCC23CC(CC12)C(C)(C)C3Br (centres undefined)

Completion:
1. 91 % of control
2. 88 % of control
3. 104 % of control
4. 89 % of control
5. 90 % of control

Batch request: T/C for each of the following compounds.
1. O=[N+]([O-])c1cccc(C=Nc2ccc(Cl)cc2Cl)c1
2. CN(C)c1ccc(C=Nc2cccc(Cl)c2)cc1

Completion:
1. 98 % of control
2. 93 % of control

Prompt: Given the compound `CN(C)N=Nc1ccc(C(=O)N/N=C/c2ccc(Br)cc2)cc1` , what is its reported T/C?
Completion: 104 % of control

----------
Answer each item with its documented T/C.
Test system: L1210 leukemia ip in BDF1 mice, survival T/C
experiment: NCI In Vivo Anticancer Drug Screen. Data for tumor model L1210 Leukemia (intraperitoneal) in B6D2F1 (BDF1) mice
run_conditions: endpoint: mean survival time; dose: 50.0 mg/kg/injection; schedule: Q01DX009 (ip); vehicle: saline with Tween-80; higher = longer survival
Toxic doses and inconclusive results are not listed.

compound: CCOC(=O)NCCCCCCNC(=O)OCC
recorded_endpoint: T/C
recorded_value: 97 % of control

Your task in this section: give T/C for each listed record.
1. O=C(CCl)Oc1cccc([N+](=O)[O-])c1
2. CCOC(=O)C(=CNc1ccccc1OC)C(=O)OCC
3. C[N+](C)(C)CCOC(=O)c1ccc(CBr)cc1

Completion:
112 % of control
95 % of control
108 % of control

Parameters: items (list). Returns: T/C for each item.
1. CC(C)=CCC/C(C)=C/CNc1ncnc2nc[nH]c12
2. Clc1ccc2nnnn2n1

Completion:
["103 % of control", "110 % of control"]

----------
System: L1210 leukemia ip in BDF1 mice, survival T/C
experiment: NCI In Vivo Anticancer Drug Screen. Data for tumor model L1210 Leukemia (intraperitoneal) in B6D2F1 (BDF1) mice
run_conditions: endpoint: mean survival time; dose: 200.0 mg/kg/injection; schedule: Q04DX002 (ip); vehicle: Klucel (hydroxypropylcellulose) (HPC); higher = longer survival
Inconclusive results and toxic doses are left out.
Exercise: for every item that follows, state its recorded T/C.

molecule: OC1CCN(C2(c3ccccc3)CCCCC2)CC1
recorded_value: 86 % of control

molecule: CCc1nc(NN)nc(CC)c1-c1ccccc1O
recorded_value: 91 % of control

molecule: O=C(NC1CCCCC1)Oc1ccc(Cl)cc1Cl
recorded_value: 96 % of control

molecule: S=C(c1ccccc1)N1CCOCC1
recorded_value: 111 % of control

molecule: S=C(Nc1ccccc1)c1ccccc1
recorded_value: 92 % of control

Provide each entry's T/C from the list below.
1. Oc1ccccc1/C=N/C(O)C(Cl)(Cl)Cl (stereo not drawn)
2. c1ccc(NCCOc2ccccc2)cc1

Completion:
1: 114 % of control; 2: 98 % of control

Please go through the list and note T/C for each molecule.
1. Cc1cc(N(CCCl)CCCl)ccc1C=Nc1ccc2c(c1)ncn2C
2. CC1CC(C(=O)O)C(Cc2ccc([N+](=O)[O-])cc2)C1=O (stereo not drawn)

Completion:
1: 98 % of control; 2: 93 % of control

List the reported T/C of each molecule below.
1. CCOC(=O)/C(O)=C\c1cc[n+]([O-])nc1Cl
2. O=C(O)C(Nc1cccc2ccccc12)c1ccccc1 (stereo not drawn)

Completion:
["101 % of control", "111 % of control"]

Please go through the list and note T/C for each molecule.
1. C=C(C)COC(OCC(=C)C)C(C)C
2. CSc1nncc(-c2cnnc(SC)n2)n1
3. O=C(Nc1ccc(Cl)cc1)c1ccccc1Cl
4. C=CCOC(=O)C1(O)c2ccccc2NC(=S)N1CC=C (stereo not drawn)
5. O=C(Nc1ccccc1)C(Cl)(Cl)Cl
6. O=C(c1ccccc1)c1nc2ccccc2[nH]1
7. CC(C)=CCc1c(N)nc(N)[nH]c1=O
8. CC1=[N+]([O-])[N+]([O-])=C(c2ccccc2)C1=O

Completion:
["109 % of control", "94 % of control", "100 % of control", "97 % of control", "92 % of control", "101 % of control", "98 % of control", "95 % of control"]

For each of the items listed, what is its T/C?
1. C=CCc1ccccc1OCC(=O)O
2. O=c1c2ccccc2[nH]c(=S)n1CCc1ccccn1
3. Cc1ccc(NCC2(/N=C/c3ccccc3)OC(CO)C(O)C2O)cc1 (stereo not drawn)
4. C=CCc1ccc(OC(=O)Nc2ccc(Cl)cc2)c(OC)c1

Completion:
["95 % of control", "95 % of control", "102 % of control", "107 % of control"]

// each molecule listed below needs its T/C
1. CCCCCCCCCC(=O)Nc1cccc(C)c1C
2. O=C(Nc1ccccc1)Oc1ccc(Cl)cc1Cl
3. NNCc1cc(Cl)c2cccnc2c1O

Completion:
1. 94 % of control
2. 110 % of control
3. 105 % of control

I would be grateful if you could provide T/C for each of the following entries.
1. Cc1ccc2c(c1)C(=O)c1ccccc1C2=O
2. COC(=O)C(=O)CC(=O)c1ccc(C)cc1

Completion:
["107 % of control", "95 % of control"]
